The compounds listed here are annotated with their AUC of viability dose-response curve.
system: NOMO1; experiment: AUC of viability dose-response curve (% viability x log10 dose units); higher = less sensitive; settings: HPLM + 10% dialyzed FBS; 48 h

{"compound": "NC/1=N/C(=O)C2=C([NH]C=C2CCC3=CC=C(C=C3)C(=O)N[C@@H](CCC(O)=O)C(O)=O)N1", "tested-target": "NOMO1", "AUC of viability dose-response curve": 358}
{"compound": "O=C1N\\N=C(\\C[C@@H]2CCN(C2)C(=O)C3CC3)N1C4=CC=C(C=C4)C5=CC=C6OC=CC6=C5", "tested-target": "NOMO1", "AUC of viability dose-response curve": 448}
{"compound": "CCCC[N+]1(C)[C@@H]2CC(OC(=O)[C@H](CO)c3ccccc3)C[C@H]1[C@@H]1O[C@@H]12 (stereo partly drawn)", "tested-target": "NOMO1", "AUC of viability dose-response curve": 420}
{"compound": "Clc1ccc2c(N3CCN(CCCN4CCN(c5ccnc6cc(Cl)ccc56)CC4)CC3)ccnc2c1", "tested-target": "NOMO1", "AUC of viability dose-response curve": 469}
{"compound": "COc1cc(Oc2ccnc3cc(OC)c(OC)cc23)ccc1NC(=O)NC(C)c1nccs1 (stereo not drawn)", "tested-target": "NOMO1", "AUC of viability dose-response curve": 444}
{"compound": "CC(=O)O/N=C1/C(=C2\\C(=O)Nc3cc(Br)ccc32)Nc2ccccc21", "tested-target": "NOMO1", "AUC of viability dose-response curve": 431}
{"compound": "CC(C)C[C@@H](N)[C@H](O)C(=O)N[C@H](C(=O)N[C@H](C(=O)N[C@@H](CC(=O)O)C(=O)O)C(C)C)C(C)C", "tested-target": "NOMO1", "AUC of viability dose-response curve": 455}
{"compound": "COC1=CC2=C(C=C1CC3=C(F)C(=CC=C3)Cl)C(=O)\\C(=C/N2[C@H](CO)C(C)C)C(O)=O", "tested-target": "NOMO1", "AUC of viability dose-response curve": 445}

* * *

system: NOMO1; test: cell viability relative to DMSO control; higher = less cytotoxic; settings: RPMI 5 mM glucose + 10% FBS; 48 h; 0.0632 µM

{"molecule": "NC/1=N/C(=O)C2=C([NH]C=C2CCC3=CC=C(C=C3)C(=O)N[C@@H](CCC(O)=O)C(O)=O)N1", "cell viability": "96.2%"}
{"molecule": "OCCN1CCN(CCCN2c3ccccc3Sc3ccc(C(F)(F)F)cc32)CC1", "cell viability": "97.5%"}
{"molecule": "CN1CCN(CC1)C/2=N/C3=CC=CC=C3NC4=C2C=C(C)S4", "cell viability": "100%"}
{"molecule": "O=C1CCc2cc(OCCCCc3nnnn3C3CCCCC3)ccc2N1", "cell viability": "85.8%"}
{"molecule": "O=C(O)CCCc1ccc(N(CCCl)CCCl)cc1", "cell viability": "127%"}
{"molecule": "Clc1ccc(C(Cn2ccnc2)OCc2ccc(Sc3ccccc3)cc2)c(Cl)c1 (centres undefined)", "cell viability": "111%"}
{"molecule": "CN1C(=O)\\C(=C/C2=C1N=C(NC3CCOCC3)N=C2)OC4=C(F)C=C(F)C=C4", "cell viability": "94.1%"}
{"molecule": "CCCCC(F)(F)[C@@]1(O)CC[C@H]2[C@@H](CC(=O)[C@@H]2CCCCCCC(=O)O)O1", "cell viability": "118%"}
{"molecule": "O=C(Nc1cccc2c(=O)cc(-c3nnn[nH]3)oc12)c1ccc(OCCCCc2ccccc2)cc1", "cell viability": "84.4%"}
{"molecule": "COc1cc([C@@H]2c3cc4c(cc3[C@@H](O[C@@H]3O[C@@H]5CO[C@@H](C)O[C@H]5[C@H](O)[C@H]3O)[C@H]3COC(=O)[C@H]23)OCO4)cc(OC)c1O", "cell viability": "79.1%"}
{"molecule": "CCCCCCCN(CC)CCCC(O)c1ccc(NS(C)(=O)=O)cc1.CCCCCCCN(CC)CCCC(O)c1ccc(NS(C)(=O)=O)cc1.O=C(O)/C=C/C(=O)O (centres undefined)", "cell viability": "107%"}
{"molecule": "COc1ccccc1OCC(O)CN1CCN(CC(=O)Nc2c(C)cccc2C)CC1 (centres undefined)", "cell viability": "139%"}
{"molecule": "CCN(CCO)CCCC(C)Nc1ccnc2cc(Cl)ccc12 (centres undefined)", "cell viability": "101%"}
{"molecule": "CN(C)Cc1cccc(N/C(=C2\\C(=O)Nc3cc(C(=O)N(C)C)ccc32)c2ccccc2)c1", "cell viability": "103%"}
{"molecule": "O=C1C(CCC(O)c2ccc(F)cc2)C(c2ccc(O)cc2)N1c1ccc(F)cc1 (centres undefined)", "cell viability": "110%"}
{"molecule": "CC/C(=C(\\c1ccccc1)c1ccc(OCCN(C)C)cc1)c1ccccc1", "cell viability": "103%"}
{"molecule": "CN1\\C(=C(O)/C2=C(C=C(Cl)S2)[S+]1([O-])=O)C(=O)NC3=NC=CC=C3", "cell viability": "119%"}
{"molecule": "CC1(C)CCC(=C(\\C1)C2=CC=C(Cl)C=C2)/CN3CCN(CC3)C4=CC(=C(C=C4)C(=O)N[S+]([O-])(=O)C5=CC=C(NCC6CCOCC6)C(=C5)[N+]([O-])=O)OC7=CN=C8[NH]C=CC8=C7", "cell viability": "85.4%"}
{"molecule": "COc1ccc(CC2SC(=O)NC2=O)cc1C(=O)NCc1ccc(C(F)(F)F)cc1 (centres undefined)", "cell viability": "81.7%"}
{"molecule": "c1cc(N[C@@H]2CCNC2)nc(-c2cnc3ccc(-c4cn[nH]c4)cn23)c1", "cell viability": "137%"}
{"molecule": "CN(C)[C@H]\\1[C@@H]2[C@@H](O)[C@H]3\\C(=C(O)/[C@]2(O)C(=O)\\C(=C1O)C(N)=O)C(=O)C4=C(C=CC=C4O)[C@@]3(C)O", "cell viability": "123%"}
{"molecule": "CCOC(=O)c1c(/C(C#N)=C\\N)c2ccc(Cl)c(Cl)c2n1C", "cell viability": "80.4%"}
{"molecule": "Oc1ccc(-c2nc(-c3ccncc3)c(-c3ccc(F)cc3)[nH]2)cc1", "cell viability": "116%"}
{"molecule": "CNC(=O)c1cc(Oc2ccc(NC(=O)Nc3ccc(Cl)c(C(F)(F)F)c3)c(F)c2)ccn1", "cell viability": "97.1%"}
{"molecule": "CN1CCC(=C2c3ccccc3CCc3sccc32)CC1", "cell viability": "125%"}
{"molecule": "COC1=CC(=C2C(=O)N(COC/3=C/C(=O)N4\\C=C/C=C(OCCN5CCCCC5)\\C4=N3)[S+]([O-])(=O)C2=C1)C(C)C", "cell viability": "132%"}
{"molecule": "COC1=CC2=C(C=C1CC3=C(F)C(=CC=C3)Cl)C(=O)\\C(=C/N2[C@H](CO)C(C)C)C(O)=O", "cell viability": "115%"}
{"molecule": "NC(=O)[C@@H](CCC(F)(F)F)N(Cc1ccc(-c2ncon2)cc1F)[S+](=O)([O-])c1ccc(Cl)cc1", "cell viability": "97.8%"}
{"molecule": "Cc1cccc(Nc2nc(N[C@@H]3CCCC[C@@H]3N)ncc2C(N)=O)c1", "cell viability": "129%"}

* * *

test system: NOMO1; assay: cell viability relative to DMSO control; higher = less cytotoxic; settings: RPMI 5 mM glucose + 10% FBS; 48 h; 15.4 µM

{"molecule": "CON(C)C(=O)N1\\N=C(/S[C@]1(CCCN)C2=CC=CC=C2)C3=CC(=CC=C3F)F", "cell viability, %": 15.6}
{"molecule": "O=C(Nc1ccncc1)C(=O)c1cn(Cc2ccc(Cl)cc2)c2ccccc12", "cell viability, %": 44.1}
{"molecule": "COc1cc([C@@H]2c3cc4c(cc3[C@@H](O)C3COC(=O)C32)OCO4)cc(OC)c1O (some centres undefined)", "cell viability, %": 20.3}
{"molecule": "COCCNCCCn1c(C(=O)CF)c(-c2ccc(C)cc2)c2c(N)ncnc21", "cell viability, %": 97.4}
{"molecule": "CCN(CCO)CCCC(C)Nc1ccnc2cc(Cl)ccc12 (centres undefined)", "cell viability, %": 45.2}
{"molecule": "CNC(=O)c1cc(Oc2ccc(NC(=O)Nc3ccc(Cl)c(C(F)(F)F)c3)c(F)c2)ccn1", "cell viability, %": 83.4}
{"molecule": "COc1ccc(-c2cc3c(C)nc(N)nc3n([C@H]3CC[C@H](OCCO)CC3)c2=O)cn1", "cell viability, %": 40.3}
{"molecule": "CN1C(=O)\\C(=C/C2=C1N=C(NC3CCOCC3)N=C2)OC4=C(F)C=C(F)C=C4", "cell viability, %": 84}
{"molecule": "O=C(N[C@H]1CN2CCC1CC2)c1ccc(Cl)cc1", "cell viability, %": 102}
